procedure details: recombinant barcode read abundance after kanamycin selection (control-corrected) (log10(CPM+1)); higher = more efficient recombination; sequences stand for … in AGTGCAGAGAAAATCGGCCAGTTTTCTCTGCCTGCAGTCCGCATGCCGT…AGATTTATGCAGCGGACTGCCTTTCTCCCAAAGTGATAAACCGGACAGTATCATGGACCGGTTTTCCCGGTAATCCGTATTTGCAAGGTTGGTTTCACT; site = the 11-nt target
Short version: recombinant barcode read abundance (log10) at least 0.3 is T, less is F.

See these solved cases before continuing.
>  <sequence entry>
TATGTAGCTTGGGTTCTAACCTGTTGCCG (site TATGTAGCTGG)

>  <assigned category>
F

$$$$
>  <sequence entry>
TTCTGCGCTTGGGTTCTAACCTGTTGCCT (site TTCTGAGCTAG)

>  <assigned category>
F

$$$$
>  <sequence entry>
TCCCAGTCTTGGGTTCTAACCTGTTGCTT (site TCCCAGTCTAG)

>  <assigned category>
T

$$$$

Input line: Does TCAGATTCTTGGGTTCTAACCTGTTGCCT (site TCACATTCTAG) have a reported recombinant barcode read abundance (log10) of at least 0.3?
Output line: F

Input line: Has CTCTTCACTTGGGTTCTAACCTGTTGCCG (site CTCTTCACTCG) a recorded recombinant barcode read abundance (log10) greater than or equal to 0.3?
Output line: T

Input line: Is reported recombinant barcode read abundance (log10) greater than or equal to 0.3 here: CTACTTACTTGGGTTCTAACCTGTTGCCT (site CTACTTACTAG)
Output line: T

---

procedure details: recombinant barcode read abundance after kanamycin selection (control-corrected) (log10(CPM+1)); higher = more efficient recombination; sequences stand for … in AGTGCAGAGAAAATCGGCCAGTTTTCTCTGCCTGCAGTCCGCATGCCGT…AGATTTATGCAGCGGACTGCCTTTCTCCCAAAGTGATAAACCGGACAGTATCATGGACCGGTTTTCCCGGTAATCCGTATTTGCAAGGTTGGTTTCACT; site = the 11-nt target
measurement type: recombinant barcode read abundance (log10)

Before answering, review these 3 worked examples.
>  <sequence entry>
CGATCTCCTTGGGTTCTAACCTGTTGCAC (site CGATCTCCTGT)

>  <value>
0.303

$$$$
>  <sequence entry>
GACGTTGCTTGGGTTCTAACCTGTTGCCT (site GACGTTGCTAG)

>  <value>
1.32

$$$$
>  <sequence entry>
GTCTCTCCTTGGGTTCTAACCTGTTGCCG (site GTCTCTCCTCG)

>  <value>
0.0734

$$$$

Input line: Please report the measured recombinant barcode read abundance (log10) for GCGCATCCTTGGGTTCTAACCTGTTGCCT (site GCGCATCCTAG)
Output line: 0.753

Input line: Please supply the value of reported recombinant barcode read abundance (log10) for the item ACCAATACTTGGGTTCTAACCTGTTGCCT (site ACCAATGCTAG)
Output line: 0.939

Input line: Identify the reported recombinant barcode read abundance (log10) for the following entry. CAGAGTACTTGGGTTCTAACCTGTTGCCT (site CAGAGTACTAG)
Output line: 0.216

Input line: Fill in recombinant barcode read abundance (log10) for record CACATTCCTTGGGTTCTAACCTGTTGCCT (site AACATTCCTAG)
Output line: 0.158

Input line: Given AACTTCTCTTGGGTTCTAACCTGTTGCCT (site AACTTCCCTAG) , respond with its recombinant barcode read abundance (log10).
Output line: 0.242

Input line: Return recombinant barcode read abundance (log10) for the following sequence: CTCAATTCTTGGGTTCTAACCTGTTGCAT (site CTCCATTCTAT)
Output line: 0.0304

Input line: Provide measured recombinant barcode read abundance (log10) value, entry: CTCGGATCTTGGGTTCTAACCTGTTGCTA (site CTCGGATCTAA)
Output line: 0.135

---

procedure details: recombinant UMI read abundance after kanamycin selection (control-corrected) (log10(CPM+1)); higher = more efficient recombination; extreme values may be limits of the assay; sequences stand for … in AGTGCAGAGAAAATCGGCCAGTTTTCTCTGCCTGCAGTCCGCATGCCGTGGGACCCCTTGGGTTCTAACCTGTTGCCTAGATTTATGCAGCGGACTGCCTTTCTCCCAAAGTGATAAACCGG…AGGTTGGTTTCACT; site = the 11-nt donor
Measured recombinant UMI read abundance (log10) values are reported for all entries that follow.

These solved cases illustrate the format of a correct answer.
>  <sequence entry>
CGCGAGTCATGGACCGGTTTTCCCGGTAATCCGTATTTGCC (site CGAGAGTCTGG)

>  <recombinant UMI read abundance (log10)>
0

$$$$
>  <sequence entry>
ATTGAGACATGGACCGGTTTTCCCGGTAATCCGTATTTGTT (site ATTGAGACTAC)

>  <recombinant UMI read abundance (log10)>
0.013

$$$$
>  <sequence entry>
ACTAGAACATGGACCGGTTTTCCCGGTAATCCGTATTTGAT (site ACTAGAACTCT)

>  <recombinant UMI read abundance (log10)>
0.0111

$$$$
>  <sequence entry>
CCAAGCGCATGGACCGGTTTTCCCGGTAATCCGTATTTGTA (site CCAAGCGCTTA)

>  <recombinant UMI read abundance (log10)>
1.3

$$$$

Now turn to the next sequence.
Input line: For the sequence CCGAATGCATGGACCGGTTTTCCCGGTAATCCGTATTTGAT (site CCGAATGCTAT) , report recombinant UMI read abundance (log10).
Output line: 0.919

---

procedure details: recombinant UMI read abundance after kanamycin selection (control-corrected) (log10(CPM+1)); higher = more efficient recombination; extreme values may be limits of the assay; sequences stand for … in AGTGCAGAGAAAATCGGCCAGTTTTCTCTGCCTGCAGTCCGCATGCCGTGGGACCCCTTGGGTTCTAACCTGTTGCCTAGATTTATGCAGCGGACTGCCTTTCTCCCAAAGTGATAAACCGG…AGGTTGGTTTCACT; site = the 11-nt donor
This listing pairs sequences with measured recombinant UMI read abundance (log10).
Kindly provide the number alone.

Look over these answered cases.
>  <sequence entry>
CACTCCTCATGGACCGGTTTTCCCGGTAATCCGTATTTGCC (site CACTCCTCTGC)

>  <measurement type>
recombinant UMI read abundance (log10)

>  <value>
0.0424

$$$$
>  <sequence entry>
CTACTACCATGGACCGGTTTTCCCGGTAATCCGTATTTGGA (site CTACTAGCTTC)

>  <measurement type>
recombinant UMI read abundance (log10)

>  <value>
0.00519

$$$$

Input line: Recall and state the measured recombinant UMI read abundance (log10) for CTCGCTACATGGACCGGTTTTCCCGGTAATCCGTATTTGCA (site CTCGCTACTTG) .
Output line: 2.41

Input line: Quick one: give measured recombinant UMI read abundance (log10) for ACACGACCATGGACCGGTTTTCCCGGTAATCCGTATTTGTC (site ACACGATCTGA)
Output line: 1.22

Input line: Query recombinant UMI read abundance (log10) for TTTGCAGCATGGACCGGTTTTCCCGGTAATCCGTATTTGCT (site TTTGCGGCTAG)
Output line: 0.00881

Input line: // Input: CGCCGGACATGGACCGGTTTTCCCGGTAATCCGTATTTGCT (site CGCCGTACTAG) . Output its recombinant UMI read abundance (log10) only.
Output line: 0

Input line: Please indicate recombinant UMI read abundance (log10) recorded for ACCTAGACATGGACCGGTTTTCCCGGTAATCCGTATTTGTG (site ACCTAGACTCA)
Output line: 0.799

Input line: Tell me recombinant UMI read abundance (log10) reported for CGTAAGCCATGGACCGGTTTTCCCGGTAATCCGTATTTGTT (site CGTAAGCCTAA)
Output line: 0.666

Input line: Let me know recorded recombinant UMI read abundance (log10) for GGTTCCCCATGGACCGGTTTTCCCGGTAATCCGTATTTGTA (site AGTTCCCCTTA) , thanks.
Output line: 0.0122

---

The entries below are paired with their reported recombinant UMI read abundance (log10).
procedure details: recombinant UMI read abundance after kanamycin selection (control-corrected) (log10(CPM+1)); higher = more efficient recombination; extreme values may be limits of the assay; sequences stand for … in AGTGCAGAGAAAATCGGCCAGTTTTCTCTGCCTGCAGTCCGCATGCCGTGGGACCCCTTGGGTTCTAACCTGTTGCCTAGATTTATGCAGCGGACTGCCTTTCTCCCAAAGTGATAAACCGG…AGGTTGGTTTCACT; site = the 11-nt donor
// return a plain number; no unit text

>  <sequence entry>
AGCCTAGCATGGACCGGTTTTCCCGGTAATCCGTATTTGCT (site AGCCTAGCTAG)

>  <measurement type>
recombinant UMI read abundance (log10)

>  <value>
0.00934

$$$$

Input line: Note down recombinant UMI read abundance (log10) recorded for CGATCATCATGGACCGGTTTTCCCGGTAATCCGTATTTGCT (site CGATCGTCTGG)
Output line: 0

Input line: Provide only the value of recorded recombinant UMI read abundance (log10) for AGCTAACCATGGACCGGTTTTCCCGGTAATCCGTATTTGCA (site AGCTAACCTTG)
Output line: 0

Input line: Give a short answer stating reported recombinant UMI read abundance (log10) for TGTACCTCATGGACCGGTTTTCCCGGTAATCCGTATTTGGT (site TGTACCTCTAC) .
Output line: 0.0562

Input line: Consider the sequence CTCCCTACATGGACCGGTTTTCCCGGTAATCCGTATTTGTG (site CTCCCTACTCA) . State its measured recombinant UMI read abundance (log10).
Output line: 0.525

Input line: Supply measured recombinant UMI read abundance (log10) of GATTATCCATGGACCGGTTTTCCCGGTAATCCGTATTTGAT (site GATTATCCTAT) in your reply.
Output line: 0
